Provenance of the data: patent US20230312524A1

target: α1A-ARS (Homo sapiens, UniProt P35348); assay: Calcium flux assay (Calcium 6 dye) in cells expressing an α1-AR; format: cell-based; conditions: read-out: Average Emax
Sequence (P35348 whole entry): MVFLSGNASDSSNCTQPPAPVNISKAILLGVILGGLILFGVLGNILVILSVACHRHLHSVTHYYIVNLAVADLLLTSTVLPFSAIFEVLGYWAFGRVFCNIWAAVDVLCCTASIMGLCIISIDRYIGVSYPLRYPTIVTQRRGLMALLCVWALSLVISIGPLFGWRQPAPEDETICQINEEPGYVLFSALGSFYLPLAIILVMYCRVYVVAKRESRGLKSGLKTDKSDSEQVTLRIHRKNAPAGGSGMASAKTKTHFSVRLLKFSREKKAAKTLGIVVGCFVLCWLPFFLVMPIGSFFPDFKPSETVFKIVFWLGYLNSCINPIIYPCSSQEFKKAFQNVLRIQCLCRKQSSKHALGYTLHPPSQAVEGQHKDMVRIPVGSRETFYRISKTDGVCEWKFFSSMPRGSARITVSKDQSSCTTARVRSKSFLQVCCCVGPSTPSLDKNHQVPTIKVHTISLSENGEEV
Give measured Emax for each item. Keep answers brief.

Given CCc1cc(C(F)(F)F)ccc1CC1=NCCN1 [Compound 78] , state its recorded Emax. > 61%

Give the measured Emax of FC(F)Oc1cccc(CC2=NCCN2)c1Cl [Compound 160] . > 61%

If you can, please state the reported Emax value of CCC(F)(F)c1c(Cl)cccc1CC1=NCCN1 [Compound 137] . 21 to 60%

Reported Emax for Cc1coc2c(CC3=NCCN3)cccc12 [Compound 60] : what is it? 21 to 60%

Item Cc1c(CC2=NCCN2)cc(Cl)c2c1ccn2C [Compound 101] has what recorded Emax? > 61%

For the molecule shown here, CC(C)c1cc(Cl)ccc1CC1=NCCN1 [Compound 84] , give the reported Emax. 21 to 60%

Could you share which Emax value was measured for CC(F)(F)c1ccc(CC2=NCCN2)c(Cl)c1 [Compound 157] ? > 61%

Which measured Emax value corresponds to Cc1cc(Cl)cc(Cl)c1CC1=NCCN1 [Compound 125] ? > 61%

Consider the molecule shown here: FCc1cc(Cl)ccc1CC1=NCCN1 [Compound 76] What is its recorded Emax? 21 to 60%

Emax lookup needed for Cc1c(CC2=NCCN2)ccc2[nH]ncc12 [Compound 55] , thanks. 21 to 60%

May I ask what Emax has been recorded for COc1ccc(CC2=NCCN2)c(C(F)(F)F)c1 [Compound 81] ? > 61%

Please report the recorded Emax for Cc1c(CC2=NCCN2)cc(Cl)c2c1cnn2C [Compound 105] . 21 to 60%

Suppose we examine the molecule Cc1cc2cccc(CC3=NCCN3)c2o1 [Compound 59] ; what Emax value has been reported? > 61%

Data request, read-out Emax, for CCc1c(Cl)cccc1CC1=NCCN1 [Compound 99] 21 to 60%

Please report the recorded Emax for CC(F)(F)c1cc(OC(F)F)ccc1CC1=NCCN1 [Compound 151] . 21 to 60%

Fill in: Emax of Cc1ccc(C(F)(F)F)cc1CC1=NCCN1 [Compound 127] is ___ > 61%

Given the molecule CC(C)Oc1cc(Cl)ccc1CC1=NCCN1 [Compound 102] , what is its reported Emax? 21 to 60%

Which Emax is reported for this molecule? Fc1ccc(CC2=NCCN2)c(C2CC2)c1 [Compound 70] 21 to 60%

Look up Emax for this molecule: Cc1c(CC2=NCCN2)cc(Cl)c2[nH]ncc12 [Compound 108] > 61%

# query: Emax of entry Cc1cc(CC2=NCCN2)cc(OC(F)F)c1 [Compound 148] > 61%

Recorded Emax for FC(F)(F)c1ccccc1CC1=NCCN1 [Compound 154] , please? 21 to 60%

Which Emax value is on record for FC(F)c1cc(Cl)ccc1CC1=NCCN1 [Compound 82] ? 21 to 60%

Consider the molecule Cc1c(Cl)cccc1CC1=NCCN1 [Compound 89] and give its measured Emax. 21 to 60%

Suppose we examine the molecule Cc1ccc(Cl)cc1CC1=NCCN1 [Compound 86] ; what Emax value has been reported? 21 to 60%

Which Emax reading was recorded for the molecule FC(F)(F)c1coc2c(CC3=NCCN3)cccc12 [Compound 92] ? 21 to 60%

What measured Emax goes with COc1ccccc1CC1=NCCN1 [Compound 156] ? 21 to 60%

GET /values?readout=Emax&item= C[C@@H](F)c1cc(Cl)ccc1CC1=NCCN1 [Compound 142] 21 to 60%

Entry FC(F)(F)Oc1cc(Cl)ccc1CC1=NCCN1 [Compound 85] has what Emax? 21 to 60%

Which value of Emax has been reported for Cc1oc2ccc(CC3=NCCN3)cc2c1C [Compound 42] in the records? < 20%

###

Assignment: determine reported Emax for the given compounds.
target: UniProtKB P35348; test: Calcium flux assay (Calcium 6 dye) in cells expressing an α1-AR; type: cell-based; conditions: calcium flux, α1A-AR; maximum effect relative to full agonist epinephrine; read-out: Average Emax

Recorded Emax for Cc1c(CC2=NCCN2)ccc(Cl)c1-c1nccs1 , please? < 20%

Suppose we examine the compound Clc1cc(CC2=NCCN2)ccc1-c1ncco1 ; what Emax value has been reported? < 20%

Given the entry Clc1ccc(CC2=NCCN2)c(-c2cccnn2)c1 , report its measured Emax. < 20%

Need Emax of Clc1ccc(CC2=NCCN2)c(-c2ncccn2)c1 , thanks. > 61%

# input compound: Cc1c(CC2=NCCN2)cccc1-n1cccn1 ; wanted: its Emax 21 to 60%

// lookup Emax for Cc1csc(-c2ccc(CC3=NCCN3)cc2Cl)n1 < 20%

Which Emax value is on record for Cn1nccc1-c1cc(Cl)ccc1CC1=NCCN1 ? 21 to 60%

Record request: Emax value, item Clc1ccc(CC2=NCCN2)c(N2CCCC2)c1 > 61%

Data request, read-out Emax, for Cc1c(CC2=NCCN2)cccc1-c1ccco1 21 to 60%

Look up Emax for this compound: c1ccc(-c2ncco2)c(CC2=NCCN2)c1 21 to 60%

Consider the compound Cc1cccn1-c1cc(Cl)ccc1CC1=NCCN1 and give its measured Emax. > 61%

Looking for the measured Emax of FC(F)(F)c1ccc(CC2=NCCN2)c(-c2ccccc2)c1 , can you help? > 61%

Look up Emax: Clc1ccc(CC2=NCCN2)c(-c2ccncn2)c1 21 to 60%

For Cc1c(CC2=NCCN2)cccc1-c1ncco1 , what is its reported Emax? 21 to 60%

Entry under review: Cc1ccoc1-c1cc(Cl)ccc1CC1=NCCN1 . Reported Emax? > 61%

Could you share which Emax value was measured for Fc1ccc(CC2=NCCN2)c(N2CCOCC2)c1 ? < 20%

Would you mind telling me what Emax value was observed for Cc1coc(-c2cc(Cl)ccc2CC2=NCCN2)n1 ? 21 to 60%

Returns the measured Emax for the input compound. Input: Clc1cc(CC2=NCCN2)ccc1-c1ccn[nH]1 < 20%

# Emax lookup, item CCc1cc(S(=O)(=O)CF)ccc1CC1=NCCN1 > 61%

Report Emax for CC(F)(F)c1cc(OC(F)(F)F)ccc1CC1=NCCN1 please. 21 to 60%

###

Target: α1A-ARS (Homo sapiens, UniProt P35348)
Assay: Calcium flux assay (Calcium 6 dye) in cells expressing an α1-AR
Type: cell-based
Details: calcium flux, α1A-AR; maximum effect relative to full agonist epinephrine; read-out: Average Emax
Method: Calcium flux experimental design: alpha-1 adrenergic receptors (α1-ARs) couple to Gq proteins, which results in downstream activation of phospholipase C and release of calcium from intracellular stores. Intracellular calcium increase upon α1-AR activation can be detected by Calcium 6 dye. […] For each assay well, baseline Calcium 6 fluorescence was detected for 18 seconds prior to 12 μL compound addition at 12 μL per second. […]
recorded-endpoint: Emax

Emax lookup needed for Clc1ccc(CC2=NCCN2)c(-n2cccn2)c1 , thanks. > 61%

Please look up its Emax: Clc1cccc(CC2=NCCN2)c1-n1cccc1 > 61%

Query (compound): Cc1cccn1-c1c(Cl)cccc1CC1=NCCN1 ; field requested: Emax 21 to 60%
